IC50 for assorted compounds
# Test system: gel-filtered platelets
# ASSAY METHOD TEXT: In vitro inhibition of thrombin-induced gel-filtered platelet aggregation
# Type: cell-based
# TEST PARAMETERS: Platelet; human gel-filtered platelets; agonist thrombin 50 μL of 1 unit/mL; read-out: Thrmb IC50 (Thrombin-induced aggregation of gel-filtered platelets)
Please state the figure in µM; there is no need to write the unit.

COc1ccc(C[C@H](NC(=O)Nc2ccc3c(CN4CCCC4)cn(Cc4ccc(I)cc4)c3c2)C(=O)N[C@@H](CCCNC(=N)N)C(=O)NCc2ccccc2)cc1 :: 8.6
CN(Cc1cn(Cc2c(Cl)cccc2Cl)c2cc(NC(=O)N[C@@H](Cc3ccc(Cl)cc3)C(=O)N[C@@H](CCCN)C(=O)NCCc3ccccc3Cl)ccc12)C1CCCC1 :: 3.2

The value of IC50 measured for the compound NCCC[C@H](NC(=O)[C@H](Cc1ccc(F)c(F)c1)NC(=O)Nc1ccc2c(CN3CCCC3)cn(Cc3c(Cl)cccc3Cl)c2c1)C(=O)Nc1ccccc1 turned out to be 0.93
